System: CN0375-F725-PDC KRAS spheroid viability;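 further: spheroids exposed to agents for 7 days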
Experiment: Anticancer human tumor CN0375-F725-PDC patient-derived colon carcinoma cell line growth inhibition [KRAS2]
Details: compound 3.16 µM; hits give low values; spheroids with HUVEC and MSC
Listing of recorded viability, T/C by entry.

Here is how some compounds turned out for viability, T/C.
Lookup: State the recorded viability, T/C for this entry: CC(C)NCC(C(=O)N1CCN(c2ncnc3c2C(C)CC3O)CC1)c1ccc(Cl)cc1 (stereo not drawn)
Found: 91.8% [middle of 5 runs]

Lookup: State the recorded viability, T/C for this entry: `Cn1nccc1Nc1nccc(-c2cc3c(s2)C(C)(C)N(CCN2CCOCC2)C3=O)n1`
Found: 56.5% [middle of 5 runs]

Lookup: State the recorded viability, T/C for this entry: `CC1(C)CCC(CN2CCN(c3ccc(C(=O)NS(=O)(=O)c4ccc(NCC5CCOCC5)c([N+](=O)[O-])c4)c(Oc4cnc5[nH]ccc5c4)c3)CC2)=C(c2ccc(Cl)cc2)C1`
Found: 67.7% [middle of 5 runs]

Lookup: State the recorded viability, T/C for this entry: `O=C(c1cc(Cc2n[nH]c(=O)c3ccccc23)ccc1F)N1CCN(C(=O)C2CC2)CC1`
Found: 105% [middle of 5 runs]

Lookup: State the recorded viability, T/C for this entry: CC1COCCN1c1cc(-c2ccnn2C)c2ccnc(-c3ccn[nH]3)c2n1 (stereo not drawn)
Found: 58.4% [middle of 5 runs]

New cases:
Lookup: State the recorded viability, T/C for this entry: C=CC(=O)N1CCN(c2nc(=O)n(-c3c(C)ccnc3C(C)C)c3nc(-c4c(O)cccc4F)c(F)cc23)C(C)C1 (stereo not drawn)
Found: 104% [middle of 17 runs]

Lookup: State the recorded viability, T/C for this entry: CC(=O)OC12COC1CC(O)C1(C)C(=O)C(O)C3=C(C)C(OC(=O)C(O)C(NC(=O)OC(C)(C)C)c4ccccc4)CC(O)(C(OC(=O)c4ccccc4)C21)C3(C)C (stereo not drawn)
Found: 80.8% [middle of 5 runs]

Lookup: State the recorded viability, T/C for this entry: CCNC(=O)CC1N=C(c2ccc(Cl)cc2)c2cc(OC)ccc2-n2c(C)nnc21 (stereo not drawn)
Found: 74.3% [middle of 5 runs]
